Source of measurements: paper PMC5350466

Tested on: B. cenocepacia K56-2
PROCEDURE SUMMARY: MIC by broth microdilution, parental strain
Assay type: cell-based, Burkholderia cenocepacia
EXPERIMENTAL SETUP: Burkholderia cenocepacia, K562; broth microdilution in cation-adjusted MHB at 18 to 24 h
Lab note - cut at 30 µg/mL for MIC: criterion met if strictly below, criterion not met if not.

Recorded results for 5 compounds are shown here.
1. CC(C)(O/N=C(\C(=O)N[C@@H]1C(=O)N2C(C(=O)[O-])=C(C[n+]3ccccc3)CS[C@H]12)c1csc(N)n1)C(=O)O | criterion not met
2. COc1cc(Cc2cnc(N)nc2N)cc(OC)c1OC | criterion met
3. CN(C)c1ccc(O)c2c1C[C@H]1C[C@H]3[C@H](N(C)C)C(O)=C(C(N)=O)C(=O)[C@@]3(O)C(O)=C1C2=O | criterion met
4. CNC(C)C1CCC(N)C(OC2C(N)CC(N)C(OC3OCC(C)(O)C(NC)C3O)C2O)O1 (centres unmarked) | criterion not met
5. CC[C@H]1OC(=O)[C@H](C)[C@@H](O[C@H]2C[C@@](C)(OC)[C@@H](O)[C@H](C)O2)[C@H](C)[C@@H](O[C@@H]2O[C@H](C)C[C@H](N(C)C)[C@H]2O)[C@](C)(O)C[C@@H](C)CN(C)[C@H](C)[C@@H](O)[C@]1(C)O | criterion not met

Query string: For CCn1cc(C(=O)O)c(=O)c2cc(F)c(N3CCNCC3)cc21 , is the recorded MIC below the cut-off of 30 µg/mL?
Result string: criterion not met

Query string: Here's an entry: C[C@@H](O)[C@H]1C(=O)N2C(C(=O)O)=C(S[C@@H]3CN[C@H](C(=O)N(C)C)C3)[C@H](C)[C@H]12 . Is its MIC below 30 µg/mL?
Result string: criterion met

Query string: Please state whether MIC is below 30 µg/mL for CO[C@H]1/C=C/O[C@@]2(C)Oc3c(C)c(O)c4c(O)c(c(/C=N/N5CCN(C)CC5)c(O)c4c3C2=O)NC(=O)/C(C)=C\C=C\[C@H](C)[C@H](O)[C@@H](C)[C@@H](O)[C@@H](C)[C@H](OC(C)=O)[C@@H]1C
Result string: criterion not met

* * *

System: bcnA::luxCDABE
PROCEDURE SUMMARY: Luciferase expression assay, bcnA::luxCDABE
Format: cell-based, Burkholderia cenocepacia
EXPERIMENTAL SETUP: antibiotic at concentrations near the MIC (sublethal), 3 h
EXPERIMENTAL ENDPOINT: expression of bcnA::luxCDABE upon exposure to antibiotic

1) CCn1cc(C(=O)O)c(=O)c2cc(F)c(N3CCNCC3)cc21 | upregulated
2) CC(C)(O/N=C(\C(=O)N[C@@H]1C(=O)N2C(C(=O)[O-])=C(C[n+]3ccccc3)CS[C@H]12)c1csc(N)n1)C(=O)O | upregulated
3) CO[C@H]1/C=C/O[C@@]2(C)Oc3c(C)c(O)c4c(O)c(c(/C=N/N5CCN(C)CC5)c(O)c4c3C2=O)NC(=O)/C(C)=C\C=C\[C@H](C)[C@H](O)[C@@H](C)[C@@H](O)[C@@H](C)[C@H](OC(C)=O)[C@@H]1C | upregulated

* * *

Recorded Ki by entry
TESTED SYSTEM: BcnA (Burkholderia cenocepacia)
Sequence (B4EE32 27-186): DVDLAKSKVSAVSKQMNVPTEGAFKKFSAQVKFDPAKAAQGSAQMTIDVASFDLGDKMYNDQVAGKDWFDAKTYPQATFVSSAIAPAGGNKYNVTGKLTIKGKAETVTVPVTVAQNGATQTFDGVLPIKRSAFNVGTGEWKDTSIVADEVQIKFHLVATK
Could you give me the number in µM? Just the number is fine.

1) CCn1cc(C(=O)O)c(=O)c2cc(F)c(N3CCNCC3)cc21 | 400
2) Cc1c(C)c2c(c(C)c1O)CC[C@@](C)(CCC[C@H](C)CCC[C@H](C)CCCC(C)C)O2 | 0.417
3) CO[C@H]1/C=C/O[C@@]2(C)Oc3c(C)c(O)c4c(O)c(c(/C=N/N5CCN(C)CC5)c(O)c4c3C2=O)NC(=O)/C(C)=C\C=C\[C@H](C)[C@H](O)[C@@H](C)[C@@H](O)[C@@H](C)[C@H](OC(C)=O)[C@@H]1C | 16.5

Query string: Need Ki of CC(C)(O/N=C(\C(=O)N[C@@H]1C(=O)N2C(C(=O)[O-])=C(C[n+]3ccccc3)CS[C@H]12)c1csc(N)n1)C(=O)O , thanks.
Result string: 16900

* * *

TESTED SYSTEM: BcnA (Burkholderia cenocepacia)
PROCEDURE SUMMARY: Antibiotic bioassay of sequestration by BcnA
Format: binding
EXPERIMENTAL SETUP: 1.5 µM BcnA, 30 min at 37°C, 10-kDa cutoff filtration
EXPERIMENTAL ENDPOINT: antibiotic sequestration by BcnA

1. CO[C@H]1/C=C/O[C@@]2(C)Oc3c(C)c(O)c4c(O)c(c(/C=N/N5CCN(C)CC5)c(O)c4c3C2=O)NC(=O)/C(C)=C\C=C\[C@H](C)[C@H](O)[C@@H](C)[C@@H](O)[C@@H](C)[C@H](OC(C)=O)[C@@H]1C [Rifampicin, rifampin] | sequestered
2. CNC(C)C1CCC(N)C(OC2C(N)CC(N)C(OC3OCC(C)(O)C(NC)C3O)C2O)O1 (stereo not shown) [Gentamicin, gentamicin] | not
3. CC(C)(O/N=C(\C(=O)N[C@@H]1C(=O)N2C(C(=O)[O-])=C(C[n+]3ccccc3)CS[C@H]12)c1csc(N)n1)C(=O)O [Ceftazidime, ceftazidime] | sequestered
4. CCn1cc(C(=O)O)c(=O)c2cc(F)c(N3CCNCC3)cc21 [Norfloxacin, norfloxacin] | sequestered
